Molecular target: T1, hIL-4Rα on cells (human, UniProt P24394 26-825)
T1 sequence: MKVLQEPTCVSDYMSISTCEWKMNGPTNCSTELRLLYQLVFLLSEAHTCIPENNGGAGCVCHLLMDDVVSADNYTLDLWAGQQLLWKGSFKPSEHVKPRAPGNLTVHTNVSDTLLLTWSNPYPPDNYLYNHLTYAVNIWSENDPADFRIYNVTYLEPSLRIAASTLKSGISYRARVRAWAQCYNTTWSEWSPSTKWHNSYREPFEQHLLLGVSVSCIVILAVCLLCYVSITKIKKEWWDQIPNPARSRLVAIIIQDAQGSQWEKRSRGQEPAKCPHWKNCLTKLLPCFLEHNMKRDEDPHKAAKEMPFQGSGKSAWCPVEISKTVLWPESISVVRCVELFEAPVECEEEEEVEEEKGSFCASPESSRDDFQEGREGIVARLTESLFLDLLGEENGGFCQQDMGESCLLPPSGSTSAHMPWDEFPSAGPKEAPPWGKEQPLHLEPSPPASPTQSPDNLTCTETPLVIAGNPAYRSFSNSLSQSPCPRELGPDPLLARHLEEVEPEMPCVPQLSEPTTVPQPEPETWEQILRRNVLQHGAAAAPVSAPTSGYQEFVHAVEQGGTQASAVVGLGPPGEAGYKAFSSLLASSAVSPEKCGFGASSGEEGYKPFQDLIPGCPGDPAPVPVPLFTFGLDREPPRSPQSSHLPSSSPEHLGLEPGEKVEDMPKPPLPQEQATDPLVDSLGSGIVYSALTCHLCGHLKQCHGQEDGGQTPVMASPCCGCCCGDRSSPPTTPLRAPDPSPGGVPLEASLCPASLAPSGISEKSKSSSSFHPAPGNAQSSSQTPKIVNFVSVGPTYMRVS
Assay: cell-based or functional assay
Measured Metric: Relative Inhibition of IL-13 induced TF-1 Proliferation IC50

Would you please look over these solved cases?
| Binder | Result |
| --- | --- |
| Construct 32 (mAb446) (antibody, IgG4, V domains shown, VH/VL only) VH: EVQLVESGGGLEQPGGSLRLSCAGSGFTFRDFAMTWVRQAPGKGLEWVSSVSGDGGNTYYADSVKGRFTISRDNSKNTLYLQMNSLRAEDTAVYYCAKDRLSVTVRPRYYGLDVWGQGTTVTVSS VL: DIVMTQSPLSLPVTPGEPASISCRSSQSLLYSNGYNYLDWYLQKSGQSPQLLIYLSSNRASGVPDRFSGSGSGTDFTLKISRVEAEDVGFYYCMQAFQAPYTFGQGTKLEIK | 2.01 relative to dupilumab |
| Construct 16 (mAb424) (antibody, IgG4, V domains shown, VH/VL only) VH: EVQLVESGGGLEQPGGSLRLSCAGSGFTFRTYAMTWVRQAPGKGLEWVSSISGSGDNIYYADSVKGRFTISRDNSKNTLYLQMNSLRAEDTAVYYCAKDRLSVTIRPRYYGLDVWGQGTTVTVSS VL: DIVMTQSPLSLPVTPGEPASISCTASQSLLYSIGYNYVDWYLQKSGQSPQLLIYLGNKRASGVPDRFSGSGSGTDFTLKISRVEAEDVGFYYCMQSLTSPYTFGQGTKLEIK | 1.44 relative to dupilumab |
| Construct 33 (mAb450) (antibody, IgG4, V domains shown, VH/VL only) VH: EVQLVESGGGLEQPGGSLRLSCAGSGFTFRDFAMTWVRQAPGKGLEWVSSISGSGGNIYYADSVKGRFTISRDNSKNTLYLQMNSLRAEDTAVYYCAKDRVSITIRPRYYGLDVWGQGTTVTVSS VL: DIVMTQSPLSLPVTPGEPASISCTASQSLLYSIGYNYVDWYLQKSGQSPQLLIYLGSKRASGVPDRFSGSGSGTDFTLKISRVEAEDVGFYYCMQALGSPYTFGQGTKLEIK | 0.926 relative to dupilumab |

Query: Return reported Relative Inhibition of IL-13 induced TF-1 Proliferation IC50; argument: Construct 15 (mAb423) (antibody, IgG4, V domains shown, VH/VL only) VH: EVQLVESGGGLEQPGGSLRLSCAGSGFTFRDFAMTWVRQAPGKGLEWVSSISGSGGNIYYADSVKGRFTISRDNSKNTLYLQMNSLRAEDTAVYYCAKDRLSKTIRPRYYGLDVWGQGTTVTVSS VL: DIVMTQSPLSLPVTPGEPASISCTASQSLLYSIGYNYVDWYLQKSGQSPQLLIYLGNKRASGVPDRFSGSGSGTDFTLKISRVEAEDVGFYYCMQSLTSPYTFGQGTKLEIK
Reply: 0.71 relative to dupilumab
